run description: Antiproliferative activity in human HCT116 cells assessed as cell growth inhibition after 48 hrs by SRB assay
Format: functional
assay context: HCT-116, 48 h
observation type: GI50 (nM)

| molecule smiles | observation type | censor symbol | assay value |
| --- | --- | --- | --- |
| COc1cc2c(=O)n(CCCN3CCOCC3)c3c(c2cc1OC(=O)c1cccnc1)C(=O)c1cc2c(cc1-3)OCO2 | GI50 | = | 30 |
| COc1cc2c(=O)n(CCCN3CCOCC3)c3c(c2cc1OC(=O)c1ccccc1)C(=O)c1cc2c(cc1-3)OCO2 | GI50 | = | 850 |
| COC(=O)CCC(=O)Oc1cc2c(=O)n(CCCN3CCOCC3)c3c(c2cc1OC)C(=O)c1cc2c(cc1-3)OCO2 | GI50 | = | 20 |
| COc1cc2c3c(n(CCCN4CCOCC4)c(=O)c2cc1OC(=O)N(C)C)-c1cc2c(cc1C3=O)OCO2 | GI50 | = | 26 |
| COc1cc2c(=O)n(CCCN3CCOCC3)c3c(c2cc1OC(=O)N(C)C)C(=O)c1cc2c(cc1-3)OCO2 | GI50 | = | 6070 |
| COc1cc2c3c(n(CCCN4CCOCC4)c(=O)c2cc1O)-c1cc2c(cc1C3=O)OCO2 | GI50 | = | 20 |
| COc1cc2c3c(n(CCCN4CCOCC4)c(=O)c2cc1OC(C)=O)-c1cc2c(cc1C3=O)OCO2 | GI50 | < | 10 |
| COc1cc2c3c(n(CCCN4CCOCC4)c(=O)c2cc1OC(=O)c1cccnc1)-c1cc2c(cc1C3=O)OCO2 | GI50 | < | 10 |
| COc1cc2c3c(n(CCCN4CCOCC4)c(=O)c2cc1OC(=O)c1ccccc1)-c1cc2c(cc1C3=O)OCO2 | GI50 | = | 5890 |
| COc1cc2c3c(n(CCCN4CCOCC4)c(=O)c2cc1OS(=O)(=O)O)-c1cc2c(cc1C3=O)OCO2 | GI50 | = | 389 |
| COc1cc2c(=O)n(CCCN3CCOCC3)c3c(c2cc1OC(C)=O)C(=O)c1cc2c(cc1-3)OCO2 | GI50 | = | 29 |
| COC(=O)CCC(=O)Oc1cc2c3c(n(CCCN4CCOCC4)c(=O)c2cc1OC)-c1cc2c(cc1C3=O)OCO2 | GI50 | = | 14 |

----------
assay system: DNA topoisomerase 1 (Homo sapiens) (UniProt P11387)
Sequence (whole entry): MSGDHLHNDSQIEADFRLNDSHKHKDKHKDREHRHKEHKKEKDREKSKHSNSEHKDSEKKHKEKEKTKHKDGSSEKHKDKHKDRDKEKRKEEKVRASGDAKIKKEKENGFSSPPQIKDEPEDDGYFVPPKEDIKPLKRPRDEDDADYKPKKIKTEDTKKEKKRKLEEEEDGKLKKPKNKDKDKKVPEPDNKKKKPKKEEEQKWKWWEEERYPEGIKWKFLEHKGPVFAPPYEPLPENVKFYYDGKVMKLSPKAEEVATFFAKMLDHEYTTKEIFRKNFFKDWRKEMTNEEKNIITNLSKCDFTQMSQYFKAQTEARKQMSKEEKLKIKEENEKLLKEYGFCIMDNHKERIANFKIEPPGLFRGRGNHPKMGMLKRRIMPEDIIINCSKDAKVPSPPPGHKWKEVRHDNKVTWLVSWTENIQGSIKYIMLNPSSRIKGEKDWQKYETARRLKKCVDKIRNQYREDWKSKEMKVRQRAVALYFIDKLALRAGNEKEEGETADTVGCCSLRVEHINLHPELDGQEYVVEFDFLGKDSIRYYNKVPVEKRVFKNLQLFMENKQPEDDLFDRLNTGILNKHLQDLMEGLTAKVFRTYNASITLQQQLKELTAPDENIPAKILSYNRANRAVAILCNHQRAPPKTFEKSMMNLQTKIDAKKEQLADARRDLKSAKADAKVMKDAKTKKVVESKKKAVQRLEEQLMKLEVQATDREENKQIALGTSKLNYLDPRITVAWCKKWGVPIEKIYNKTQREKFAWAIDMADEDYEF
run description: Inhibition of human recombinant Top1 expressed in baculovirus using [32P]-3-end labeled 117 bp DNA oligonucleotide as substrate assessed as enzyme mediated DNA cleavage at 0.1 to 100 uM after 20 mins by SDS-PAGE analysis relative to camptothecin
Parameters: scale not given: the % may be the effect or the level left
Catalogue of Activity values

| molecule smiles | Activity |
| --- | --- |
| COc1cc2c3c(n(CCCN4CCOCC4)c(=O)c2cc1OS(=O)(=O)O)-c1cc2c(cc1C3=O)OCO2 | 50% |
| COc1cc2c(=O)n(CCCN3CCOCC3)c3c(c2cc1OC(=O)c1cccnc1)C(=O)c1cc2c(cc1-3)OCO2 | 75% |
| COc1cc2c(=O)n(CCCN3CCOCC3)c3c(c2cc1OC(=O)c1ccccc1)C(=O)c1cc2c(cc1-3)OCO2 | 20% |
| COc1cc2c(=O)n(CCCN3CCOCC3)c3c(c2cc1OC(C)=O)C(=O)c1cc2c(cc1-3)OCO2 | 50% |
| COc1cc2c(=O)n(CCCN3CCOCC3)c3c(c2cc1OC(=O)N(C)C)C(=O)c1cc2c(cc1-3)OCO2 | 75% |

----------
assay system: DNA topoisomerase 1 (Homo sapiens)
run description: Inhibition of human recombinant Top1 expressed in baculovirus using [32P]-3-end labeled 117 bp DNA oligonucleotide as substrate assessed as enzyme mediated DNA cleavage after 20 mins by SDS-PAGE analysis relative to camptothecin
Design: concentration or dose not given beside the values
Activity calls are given as the source filed them. The rule behind the calls is not given here.

| molecule smiles | Activity |
| --- | --- |
| COC(=O)CCC(=O)Oc1cc2c(=O)n(CCCN3CCOCC3)c3c(c2cc1OC)C(=O)c1cc2c(cc1-3)OCO2 | inactive |
| COc1cc2c3c(n(CCCN4CCOCC4)c(=O)c2cc1O)-c1cc2c(cc1C3=O)OCO2 | 75% |
| COc1cc2c3c(n(CCCN4CCOCC4)c(=O)c2cc1OC(=O)N(C)C)-c1cc2c(cc1C3=O)OCO2 | 50% |
| COc1cc2c3c(n(CCCN4CCOCC4)c(=O)c2cc1OC(C)=O)-c1cc2c(cc1C3=O)OCO2 | inactive |
| COC(=O)CCC(=O)Oc1cc2c3c(n(CCCN4CCOCC4)c(=O)c2cc1OC)-c1cc2c(cc1C3=O)OCO2 | 20% |
| COc1cc2c3c(n(CCCN4CCOCC4)c(=O)c2cc1OC)-c1cc2c(cc1C3=O)OCO2 | 100% |
| COc1cc2c3c(n(CCCN4CCOCC4)c(=O)c2cc1OC(=O)c1cccnc1)-c1cc2c(cc1C3=O)OCO2 | 20% |
| COc1cc2c3c(n(CCCN4CCOCC4)c(=O)c2cc1OC(=O)c1ccccc1)-c1cc2c(cc1C3=O)OCO2 | 20% |
| COc1cc2c(=O)n(CCCN3CCOCC3)c3c(c2cc1O)C(=O)c1cc2c(cc1-3)OCO2 | 50% |

Values were extracted from ChEMBL document CHEMBL3822428.
